target: HA of influenza B virus ca B/Ann Arbor/2/94 (yamagata) (influenza B virus B/Ann Arbor/2/94)
experiment-description: cell-based or functional assay
measure-name: Neutralization (Ave IC50 ug/ml) (µg/mL)
Use µg/mL as the unit, but write only the number.

FBC-39 LSL (antibody, V domains shown) VH: EVQLVESGGGLVKPGGSLRLSCAASGLSFLNAWMSWVRQAPGKGLEWVGRIKSNTDGGTTDYAAPVKGRFTISRDDSKNTLYLQMSSLKTEDTAVYYCTTDGPYSDDFRSGYAARYRYFGMDVWGQGTTVTVSS VL: DIQMTQSPSSVSASVGDRVTITCRASQDISTWLAWYQQKPGKAPKLLIYAASSLQSGVPSRFSGSGSGTDFTLTISSLQPEDFATYYCQQANSFPPTFGQGTKLEIK :: 0.033

# evaluate next
IN: State the recorded Neutralization (Ave IC50 ug/ml) for this entry: FBD-56 (antibody, V domains shown) VH: EVQLVESGGHLVQPGRSLRLSCAASGFTFEDYAMNWVRQAPGKGLEWVSVISWDSGRIGYADSVKGRFTISRDNAKNSSYLQMNSLRPEDTALYYCVRDMLAYYSDNSGKKYNVYGMDVWGQGTTVTVSS VL: EIVLTQSPATLSLSPGERATLSCRASQSVSTFLAWYQQKPGQAPRLLMYDASNRATGIPARFSGSGSGTDFTLTISSLEPEDFAIYYCQQRSHWPPIFGQGTRLEIK
OUT: 1.25
